B1: E3 ubiquitin-protein ligase NEDD4-like, residues 539 to 589; numbered along this chain, Q96PU5 (parent)
chain: KTSLNPNDLGPLPPGWEERIHLDGRTFYIDHNSKITQWEDPRLQNPAITGP

Variants of: B1
Experiment: abundance fitness (aPCA) (normalised: wild type 0, dead -1); higher = more abundant; growth selection in yeast, the domain comes from the species named
Conditions: Homo sapiens
valueType: abundance fitness
Answers are plain numbers.

Dear colleague, could you send me abundance fitness for each of the items below? Thanks.
1. L4N
2. G15M
3. I29D
4. E17H
5. T26Q
6. P6Y
7. D23F
8. E18G

1: -0.295; 2: -0.406; 3: -0.422; 4: -0.157; 5: -0.284; 6: -0.105; 7: -1.12; 8: -0.503
